# Tested on: 12 patient-derived drug resistant viruses
# experiment summary: PhenoSense HIV antiviral assay
# Type: cell-based
# assay setup: Human immunodeficiency virus 1, read-out: average EC50
readout type: EC50 (nM)
Report the value in nM with no unit label.

Q) For the compound shown here, CC(C)CN(C[C@@H](O)[C@H](Cc1ccccc1)NC(=O)O[C@H]1CO[C@H]2OCC[C@H]21)S(=O)(=O)c1ccc(N)cc1 , give the reported EC50.
A) 5.98

###

# experiment summary: Microsomal stability
# Format: in vitro ADME
# assay setup: human microsomes, 60 min, RTV −
readout type: Microsomal Stability (Avg. % Fraction Remaining) at 60 Minutes Human (%)
Report only the number, with the unit % understood.

Q) Using the record for CC[C@H](C)CN(C[C@@H](O)[C@H](Cc1ccccc1)NC(=O)O[C@H]1CO[C@H]2OCC[C@H]21)S(=O)(=O)c1ccc2c(c1)OCO2 [10d] , report its Microsomal Stability (Avg. % Fraction Remaining) at 60 Minutes Human.
A) 4

Q) Returns the measured Microsomal Stability (Avg. % Fraction Remaining) at 60 Minutes Human for the input molecule. Input: CCC(CC)CN(C[C@@H](O)[C@H](Cc1ccccc1)NC(=O)O[C@H]1CO[C@H]2OCC[C@H]21)S(=O)(=O)c1ccc2c(c1)OCO2 [11d]
A) 0

Q) Using the record for CC[C@H](C)CN(C[C@@H](O)[C@H](Cc1ccccc1)NC(=O)O[C@H]1CO[C@H]2OCC[C@H]21)S(=O)(=O)c1ccc(OC)cc1 [10b] , report its Microsomal Stability (Avg. % Fraction Remaining) at 60 Minutes Human.
A) 0

Q) Name the recorded Microsomal Stability (Avg. % Fraction Remaining) at 60 Minutes Human for CCC(CC)CN(C[C@@H](O)[C@H](Cc1ccccc1)NC(=O)O[C@H]1CO[C@H]2OCC[C@H]21)S(=O)(=O)c1ccc(CO)cc1 [11c] .
A) 0

Q) May I ask what Microsomal Stability (Avg. % Fraction Remaining) at 60 Minutes Human has been recorded for CC[C@H](C)CN(C[C@@H](O)[C@H](Cc1ccccc1)NC(=O)O[C@H]1CO[C@H]2OCC[C@H]21)S(=O)(=O)c1ccc(CO)cc1 [10c] ?
A) 0

Q) Request the reported Microsomal Stability (Avg. % Fraction Remaining) at 60 Minutes Human associated with CC[C@H](C)CN(C[C@@H](O)[C@H](Cc1ccccc1)NC(=O)O[C@H]1CO[C@H]2OCC[C@H]21)S(=O)(=O)c1ccc(N)cc1 [10a]
A) 19

Q) Data request, read-out Microsomal Stability (Avg. % Fraction Remaining) at 60 Minutes Human, for CCC(CC)CN(C[C@@H](O)[C@H](Cc1ccccc1)NC(=O)O[C@H]1CO[C@H]2OCC[C@H]21)S(=O)(=O)c1ccc(OC)cc1 [11b]
A) 0

###

For each record, write down the corresponding Microsomal Stability (Avg. % Fraction Remaining) at 30 Minutes Rat.
# experiment summary: Microsomal stability
# Format: in vitro ADME
# assay setup: rat microsomes, 30 min, RTV −
Report as a plain number; the unit % is understood.

Q) Using the record for CC[C@H](C)CN(C[C@@H](O)[C@H](Cc1ccccc1)NC(=O)O[C@H]1CO[C@H]2OCC[C@H]21)S(=O)(=O)c1ccc(OC)cc1 [10b] , report its Microsomal Stability (Avg. % Fraction Remaining) at 30 Minutes Rat.
A) 0

Q) Fill in: Microsomal Stability (Avg. % Fraction Remaining) at 30 Minutes Rat of CCC(CC)CN(C[C@@H](O)[C@H](Cc1ccccc1)NC(=O)O[C@H]1CO[C@H]2OCC[C@H]21)S(=O)(=O)c1ccc2c(c1)OCO2 [11d] is ___
A) 0

Q) Which Microsomal Stability (Avg. % Fraction Remaining) at 30 Minutes Rat is listed for CCC(CC)CN(C[C@@H](O)[C@H](Cc1ccccc1)NC(=O)O[C@H]1CO[C@H]2OCC[C@H]21)S(=O)(=O)c1ccc(CO)cc1 [11c] ?
A) 0

###

# experiment summary: Microsomal stability
# Assay type: in vitro ADME
# assay setup: rat microsomes, RTV −
readout type: Microsomal T1/2 Rat (min)
Supply the numeric figure in min, leaving out any unit text.

Q) So what does the record say about Microsomal T1/2 Rat for CC[C@H](C)CN(C[C@@H](O)[C@H](Cc1ccccc1)NC(=O)O[C@H]1CO[C@H]2OCC[C@H]21)S(=O)(=O)c1ccc(N)cc1 [10a] ?
A) 16

Q) Any idea what Microsomal T1/2 Rat was measured for CCC(CC)CN(C[C@@H](O)[C@H](Cc1ccccc1)NC(=O)O[C@H]1CO[C@H]2OCC[C@H]21)S(=O)(=O)c1ccc(CO)cc1 [11c] ?
A) 2

Q) Given the entry CCC(CC)CN(C[C@@H](O)[C@H](Cc1ccccc1)NC(=O)O[C@H]1CO[C@H]2OCC[C@H]21)S(=O)(=O)c1ccc(OC)cc1 [11b] , report its measured Microsomal T1/2 Rat.
A) 14

###

# experiment summary: Microsomal stability
# Format: in vitro ADME
# assay setup: human microsomes, RTV +
readout type: Microsomal T1/2 Human (h)
The reply should be a number in h, with the unit left off.

Q) Which Microsomal T1/2 Human reading was recorded for the compound CCC(CC)CN(C[C@@H](O)[C@H](Cc1ccccc1)NC(=O)O[C@H]1CO[C@H]2OCC[C@H]21)S(=O)(=O)c1ccc(OC)cc1 [11b] ?
A) 1.5

Q) Which Microsomal T1/2 Human reading was recorded for the compound CCC(CC)CN(C[C@@H](O)[C@H](Cc1ccccc1)NC(=O)O[C@H]1CO[C@H]2OCC[C@H]21)S(=O)(=O)c1ccc2c(c1)OCO2 [11d] ?
A) 0.75

Q) What measured Microsomal T1/2 Human goes with CC[C@H](C)CN(C[C@@H](O)[C@H](Cc1ccccc1)NC(=O)O[C@H]1CO[C@H]2OCC[C@H]21)S(=O)(=O)c1ccc2c(c1)OCO2 [10d] ?
A) 1.42

###

Could you please report measured Microsomal T1/2 Human for the items listed next?
# experiment summary: Microsomal stability
# Assay type: in vitro ADME
# assay setup: human microsomes, RTV −
Field format: number, assumed min, no unit text.

Q) Name the reported Microsomal T1/2 Human value associated with the compound CC[C@H](C)CN(C[C@@H](O)[C@H](Cc1ccccc1)NC(=O)O[C@H]1CO[C@H]2OCC[C@H]21)S(=O)(=O)c1ccc(N)cc1 [10a]
A) 26

Q) What Microsomal T1/2 Human value was documented for this compound, CCC(CC)CN(C[C@@H](O)[C@H](Cc1ccccc1)NC(=O)O[C@H]1CO[C@H]2OCC[C@H]21)S(=O)(=O)c1ccc(OC)cc1 [11b] ?
A) 2

Q) Microsomal T1/2 Human for CCC(CC)CN(C[C@@H](O)[C@H](Cc1ccccc1)NC(=O)O[C@H]1CO[C@H]2OCC[C@H]21)S(=O)(=O)c1ccc(CO)cc1 [11c] ?
A) 3

Q) Form field: reported Microsomal T1/2 Human of CC[C@H](C)CN(C[C@@H](O)[C@H](Cc1ccccc1)NC(=O)O[C@H]1CO[C@H]2OCC[C@H]21)S(=O)(=O)c1ccc(CO)cc1 [10c]
A) 4

###

# experiment summary: Microsomal stability
# Format: in vitro ADME
# assay setup: rat microsomes, 30 min, RTV −
Can you tell me Microsomal Stability (Avg. % Fraction Remaining) at 30 Minutes Rat for the items I'm about to list?
Please give a number only; it is taken to be in %.

Q) Any idea what Microsomal Stability (Avg. % Fraction Remaining) at 30 Minutes Rat was measured for CCC(CC)CN(C[C@@H](O)[C@H](Cc1ccccc1)NC(=O)O[C@H]1CO[C@H]2OCC[C@H]21)S(=O)(=O)c1ccc(OC)cc1 [11b] ?
A) 18

Q) Param item = CC[C@H](C)CN(C[C@@H](O)[C@H](Cc1ccccc1)NC(=O)O[C@H]1CO[C@H]2OCC[C@H]21)S(=O)(=O)c1ccc2c(c1)OCO2 [10d] ; retrieve measured Microsomal Stability (Avg. % Fraction Remaining) at 30 Minutes Rat.
A) 0

Q) Look up Microsomal Stability (Avg. % Fraction Remaining) at 30 Minutes Rat for this compound: CC[C@H](C)CN(C[C@@H](O)[C@H](Cc1ccccc1)NC(=O)O[C@H]1CO[C@H]2OCC[C@H]21)S(=O)(=O)c1ccc(N)cc1 [10a]
A) 24

Q) # Microsomal Stability (Avg. % Fraction Remaining) at 30 Minutes Rat lookup, item CC[C@H](C)CN(C[C@@H](O)[C@H](Cc1ccccc1)NC(=O)O[C@H]1CO[C@H]2OCC[C@H]21)S(=O)(=O)c1ccc(CO)cc1 [10c]
A) 0

###

# experiment summary: Microsomal stability
# Type: in vitro ADME
# assay setup: human microsomes, RTV −
readout type: Microsomal CLint Human (μL min^-1 mg^1)
Please reply with the bare figure in μL min^-1 mg^1 and do not write the unit itself.

Q) # Microsomal CLint Human lookup, item CCC(CC)CN(C[C@@H](O)[C@H](Cc1ccccc1)NC(=O)O[C@H]1CO[C@H]2OCC[C@H]21)S(=O)(=O)c1ccc(CO)cc1 [11c]
A) 829

Q) Given the compound CCC(CC)CN(C[C@@H](O)[C@H](Cc1ccccc1)NC(=O)O[C@H]1CO[C@H]2OCC[C@H]21)S(=O)(=O)c1ccc(OC)cc1 [11b] , what is its reported Microsomal CLint Human?
A) 844

Q) # input compound: CC[C@H](C)CN(C[C@@H](O)[C@H](Cc1ccccc1)NC(=O)O[C@H]1CO[C@H]2OCC[C@H]21)S(=O)(=O)c1ccc(OC)cc1 [10b] ; wanted: its Microsomal CLint Human
A) 776
